# Tested on: EKVX NSCLC
# assay_notes: NCI tumour cell line growth inhibition, 48 h
assay_readout: TGI (µM)
State just the number; it will be interpreted in µM.

The cases that follow already have their TGI on record.
substance_smiles: Cc1ccc(S[C@@H](C)[C@@](O)(CF)CN(Cc2ccccc2)C(=O)C(F)(F)F)cc1
assay_readout: TGI
endpoint_result: 64.9

substance_smiles: Fc1cc(-c2nnc3n2N=C(c2ccc(Cl)cc2)CS3)c(Cl)cc1Cl
assay_readout: TGI
endpoint_result: 48.1

Would you kindly look at the next entry?
Incoming: Give the measured TGI for COc1ccccc1NC(=O)c1cc2cc(Br)ccc2cc1O
Outgoing: 8.1

Data origin, for the record: PubChem BioAssay (NCI)
